melting point overview

structure=Cc1ccc(C(=O)c2ccc(Cc3c(Cl)cc(N)cc3Cl)cc2)cn1 quantity="melting point" measured_value="153 to 155 °C"
structure=Nc1ncnc2c1ncn2C=CC=O quantity="melting point" measured_value="258 to 260 °C"
structure=COc1cc2c(Nc3ccc(C)c(OC(C)=O)c3)ncnc2cc1OCc1ccsc1 quantity="melting point" measured_value="201 to 203 °C"
structure=O=C(O)/C=C/c1ccc(C(=C2CCCCCC2)c2ccc(O)c(F)c2)cc1 quantity="melting point" measured_value="164 to 165 °C"

Ask | Give its melting point value. Item: O=C(Oc1ccccc1)N1CCCc2nc3ccccc3c(Cl)c2C1
Reply | 137 °C
